Here's a roundup of pKi values tested on Alpha-1D adrenergic receptor (Homo sapiens, UniProt P25100), taken from various published works.
Sequence (P25100 whole entry): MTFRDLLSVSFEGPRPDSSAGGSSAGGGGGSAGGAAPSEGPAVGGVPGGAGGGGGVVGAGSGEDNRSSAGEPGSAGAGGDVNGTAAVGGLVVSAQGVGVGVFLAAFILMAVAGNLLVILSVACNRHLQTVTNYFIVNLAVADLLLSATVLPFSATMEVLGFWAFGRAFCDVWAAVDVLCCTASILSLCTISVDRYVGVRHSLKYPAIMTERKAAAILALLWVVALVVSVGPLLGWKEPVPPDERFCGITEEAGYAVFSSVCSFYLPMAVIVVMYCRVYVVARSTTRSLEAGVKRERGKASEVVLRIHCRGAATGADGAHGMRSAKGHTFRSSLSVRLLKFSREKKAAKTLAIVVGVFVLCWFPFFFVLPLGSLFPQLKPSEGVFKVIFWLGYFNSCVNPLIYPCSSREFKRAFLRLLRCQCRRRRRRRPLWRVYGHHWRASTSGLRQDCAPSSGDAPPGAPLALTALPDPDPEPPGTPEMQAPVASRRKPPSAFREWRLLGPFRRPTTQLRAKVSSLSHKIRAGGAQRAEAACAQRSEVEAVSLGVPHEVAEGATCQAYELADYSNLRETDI
The quantity pKi is defined as the negative base-10 logarithm of the molar concentration.

Here is how some compounds turned out for pKi.
Compound: COc1ccccc1N1CCN(C[C@@H]2CO[C@@](CN3C(=O)CCCC3=O)(c3ccccc3)O2)CC1 (relative stereo)
Assay Metric: pKi
Recorded Value: 8.07
//
Compound: COc1ccccc1N1CCN(CCNc2c(C(=O)C(C)C)c(-c3ccccc3)nn(C)c2=O)CC1
Assay Metric: pKi
Recorded Value: 9.37
//
Compound: COc1cc2nc(N3CCN(C(=O)C4CCCO4)CC3)nc(N)c2cc1OC (stereo not given)
Assay Metric: pKi
Recorded Value: 8.40

We next turn to a different compound, shown below.
# lookup: Alpha-1D adrenergic receptor (Homo sapiens, UniProt P25100) pKi, key = "O=C1CC2(C=CN1CCN1CCN(c3ccccc3Cl)CC1)CCCC2"
9.08

====

Here's a roundup of Ki values tested on Alpha-1D adrenergic receptor (Homo sapiens), taken from various published works.
Numeric only. Scale: nM

Molecule: O=C1CC2(CCCC2)CC(=O)N1CCN1CCCN(c2ccccc2Cl)CC1
Recorded Value: 1.38
//
Molecule: COc1ccc2ccccc2c1OCCNC[C@H]1COc2cc3c(cc2O1)CCCC3
Recorded Value: 148
//
Molecule: COc1ccc(SC)c(NCC2=NCCN2)c1
Recorded Value: 107

# lookup: Alpha-1D adrenergic receptor (Homo sapiens) Ki, key = CO/C(O)=C1\C(C)=NC(C)=C(C(=O)NCCCN2CCC(c3ccccc3)(c3ccccc3)CC2)C1c1ccc2c(c1)OCO2 (stereo not given)
302

# lookup: Alpha-1D adrenergic receptor (Homo sapiens) Ki, key = "CS(=O)(=O)Nc1ccc2c(c1)OC1(CCN(CCc3cccc4ccccc34)CC1)CC2=O"
136

# lookup: Alpha-1D adrenergic receptor (Homo sapiens) Ki, key = "COc1cc(-c2ccccc2)ccc1OCCNC[C@@H]1COc2ccccc2O1"
363

====

Here's a roundup of Ki values tested on Alpha-1D adrenergic receptor (Homo sapiens, UniProt P25100), taken from various published works.
Cut-off 0.005 µM on Ki: below means MET, at or above means NOT MET.

Worked examples, 2 compounds total:
Compound: COc1ccc2ccccc2c1OCCNC[C@@H]1COc2cc3c(cc2O1)CCCC3
Discrete Label: NOT MET

Compound: COc1ccccc1N1CCN(CCn2c(=O)[nH]c3scc(-c4ccccc4)c3c2=O)CC1
Discrete Label: MET

Ki strictly < 0.005 µM for this compound? c1ccc2c(c1)CCCC2NC1=NCCCO1 (stereo not drawn)
NOT MET

Ki strictly < 0.005 µM for this compound? "CCOc1cccc(OCC)c1OCCNCCOc1ccccc1OCc1ccccc1"
MET

Ki strictly < 0.005 µM for this compound? COc1ccccc1N1CCN(CC2CCC(c3ccccc3)(c3ccccc3)O2)CC1 (stereo not drawn)
MET

====

Here's a roundup of log10 of Ki values tested on Alpha-1D adrenergic receptor (Homo sapiens), taken from various published works.
Field: value | Transform: log10 | Quantity: Ki | Unit: nM

Molecule: COc1ccccc1N1CCN(CCCNc2cc(-c3ccccc3)nn(C)c2=O)CC1
log10 of Ki: 1.07

Molecule: COc1cc(N2C(=O)c3ccc(C(=O)NCC(O)CN4CCN(c5ccccc5OC(C)C)CC4)cc3C2=O)cc(OC)c1OC (configuration not stated)
log10 of Ki: 2.18

Molecule: O[C@@H]1[C@@H](CNCCOc2ccccc2)CCC1(c1ccccc1)c1ccccc1 (relative stereo)
log10 of Ki: 1.97

Molecule: CC(C)Oc1ccccc1N1CCN(CC(O)CNC(=O)c2ccc3c(c2)C(=O)N(c2ccc(Cl)c(Cl)c2)C3=O)CC1 (configuration not stated)
log10 of Ki: 1.71

Molecule: c1ccc(COc2ccccc2OCCNCCOc2ccccc2)cc1
log10 of Ki: 1.25

Molecule: O=C1CC2(CCCC2)CC(=O)N1CCN1CCC(c2ccccc2Cl)CC1
log10 of Ki: 0.05

# lookup: Alpha-1D adrenergic receptor (Homo sapiens) log10 of Ki, key = "CC(C)Oc1ccccc1N1CCN(CCN2C(=O)CC3(CCCC3)CC2=O)CC1"
0.46

# lookup: Alpha-1D adrenergic receptor (Homo sapiens) log10 of Ki, key = "O=C1CC2(CCCC2)CC(=O)N1CCN1CCC(c2cc(Cl)ccc2Cl)CC1"
0.18
